# system: human GABAA α1β3γ2 receptor (Homo sapiens (Human), UniProt P14867+P18507)
# protocol: Radioligand binding assay, competition for [3H]Flumazenil, γ2-containing GABAA subtypes
# setupConditions: HEK293F cells, [3H]Flumazenil 1 nM, Table 1; read-out: Ki h-GABAA α1β3γ2
measuredQuantity: Ki (µM)
Respond with the bare value in µM.

Field: example entries. Status: answers known.
cpdSmiles	u	Ki
C[C@@H]1N=C(c2c(F)cccc2F)c2c(sc3c2COCCO3)-n2nc(C(=O)NCC3(O)CC3)nc21	µM	3.69
C[C@@H]1N=C(c2c(F)cccc2F)c2c(sc3c2COCCC3)-n2cc(C(=O)NCC3(O)CC3)nc21	µM	1.98
CCOC1CN(C(=O)c2nc3n(n2)-c2sc4c(c2C(c2c(F)cccc2F)=N[C@H]3C)COCCO4)C1	µM	4.54

Challenge: Check the records and state Ki for "C[C@@H]1N=C(c2c(F)cccc2F)c2c(sc3c2COCCO3)-n2nc(C(=O)NC3CC3)nc21"
Response given: 4.08

Challenge: Check the records and state Ki for "[2H]C1([2H])OCc2c(sc3c2C(c2c(F)cccc2F)=N[C@@H](C)c2nc(C(=O)N4CCC4)nn2-3)OC1([2H])[2H]"
Response given: 8.42

Challenge: Check the records and state Ki for "C[C@@H]1N=C(c2c(F)cccc2F)c2c(sc3c2COCCC3)-n2cc(C(=O)NCCO)nc21"
Response given: 2.51

Challenge: Check the records and state Ki for "C[C@@H]1N=C(c2c(F)cccc2F)c2c(sc3c2COCCO3)-n2nc(C(=O)NCCF)nc21"
Response given: 2.19
